Overview of reported TGI across a group of compounds:
System: LOX IMVI melanoma
ASSAY_OVERVIEW: NCI tumour cell line growth inhibition, 48 h

Cn1ccnc1C(=O)/C=C/c1ccc(C(=O)Nc2ccc(Cl)cc2)cc1; 1.56 µM
CNC(=O)CN(CC(=O)NC)C(=O)NC; > 100 µM

[in] Lab note: need TGI with LOX IMVI melanoma for entry CC(=O)OC1CCN(C(=O)c2ccccc2)CC1CC1(c2cc3ccccc3[nH]2)OCCO1 (configuration not stated) , please look it up.
[out] > 100 µM

* * *

Test system: OVCAR-3 ovarian
ASSAY_OVERVIEW: NCI tumour cell line growth inhibition, 48 h
MEASUREMENT_TYPE: TGI

COc1ccc(N2C(=O)C3c4[nH]c5ccc(OC)cc5c4C4CCC(C(C)(C)C)CC4C3C2=O)cc1 (stereo not given); > 100 µM
COC(=O)[C@@H]1CN(C(=O)c2ccccc2)C(=O)N1; > 100 µM
COc1ccccc1C1SCC(=O)N1c1ccc(-n2c(-c3ccccc3)nc3ccccc3c2=O)cc1 (stereo not given); > 100 µM
Cn1c2ccccc2c2c(-c3ccccc3)[n+]3ccccc3nc21; 57.7 µM
CC1=C(C(=O)Nc2ccc(F)c(Cl)c2)C(c2ccccc2Cl)NC(=S)N1 (stereo not given); > 50 µM

[in] Lab note: need TGI with OVCAR-3 ovarian for entry CC(=O)N1N=C2/C(=C/c3ccccc3)CC(C)CC2C1c1ccccc1 (stereo not given) , please look it up.
[out] 32.6 µM

[in] Lab note: need TGI with OVCAR-3 ovarian for entry `Cc1nc(C)c(C(=O)NNC(=O)Cc2ccccc2)cc1C(=O)NNC(=O)Cc1ccccc1` , please look it up.
[out] > 100 µM

[in] Lab note: need TGI with OVCAR-3 ovarian for entry CC(=O)OC(/C=C1/C=CC(=O)O1)COC(=O)c1ccccc1 (stereo not given) , please look it up.
[out] > 31.2 µM

[in] Lab note: need TGI with OVCAR-3 ovarian for entry `COC(=O)/C=C/c1ccc2c(c1)CCC2` , please look it up.
[out] > 100 µM

[in] Lab note: need TGI with OVCAR-3 ovarian for entry COc1ccc2cc(C(C)C(O)c3cc(F)c(F)c(F)c3F)ccc2c1 (stereo not given) , please look it up.
[out] > 100 µM
